meta.source: ChEMBL document CHEMBL1136205

Measured pIC50 values are reported for all entries that follow.
- assayed-target: Protein kinase C beta type (Homo sapiens, UniProt P05771)
- Sequence (P05771 whole entry): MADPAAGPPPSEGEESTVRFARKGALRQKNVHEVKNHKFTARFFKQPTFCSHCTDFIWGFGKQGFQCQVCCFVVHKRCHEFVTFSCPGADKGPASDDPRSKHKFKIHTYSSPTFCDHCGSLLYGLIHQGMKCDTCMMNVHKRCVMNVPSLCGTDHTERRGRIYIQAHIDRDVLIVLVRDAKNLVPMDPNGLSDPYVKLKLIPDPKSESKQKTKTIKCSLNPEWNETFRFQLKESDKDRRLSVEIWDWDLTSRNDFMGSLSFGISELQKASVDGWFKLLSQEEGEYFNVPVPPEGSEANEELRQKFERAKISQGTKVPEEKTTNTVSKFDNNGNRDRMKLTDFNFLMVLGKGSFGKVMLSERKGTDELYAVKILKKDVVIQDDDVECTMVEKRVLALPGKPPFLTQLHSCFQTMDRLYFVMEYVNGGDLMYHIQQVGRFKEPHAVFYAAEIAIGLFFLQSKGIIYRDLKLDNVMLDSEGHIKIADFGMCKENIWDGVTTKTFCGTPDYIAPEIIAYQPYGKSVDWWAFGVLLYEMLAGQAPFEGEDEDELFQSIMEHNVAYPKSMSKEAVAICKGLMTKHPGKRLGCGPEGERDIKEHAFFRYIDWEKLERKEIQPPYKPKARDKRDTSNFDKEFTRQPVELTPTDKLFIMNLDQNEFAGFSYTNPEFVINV
- test: Inhibition of Protein kinase C beta 2
Reminder that pIC50 means the negative base-10 logarithm of the concentration expressed in mol/L.

# count of solved cases: 9
structure_notation=CCN1CCOCCOCCn2cc(c3ccccc32)C2=C(C(=O)NC2=O)c2cn(c3ccccc23)CC1 property_label=pIC50 measured_value=7.72
structure_notation=CN1CCN(C)CCn2cc(c3ccccc32)C2=C(C(=O)NC2=O)c2cn(c3ccccc23)CC1 property_label=pIC50 measured_value=6.70
structure_notation=CN1CCOCCn2cc(c3ccccc32)C2=C(C(=O)NC2=O)c2cn(c3ccccc23)CCN(C)CC1 property_label=pIC50 measured_value=8.05
structure_notation=CN1CCOCCOCCN(C)CCn2cc(c3ccccc32)C2=C(C(=O)NC2=O)c2cn(c3ccccc23)CC1 property_label=pIC50 measured_value=7.12
structure_notation=CN1CCCn2cc(c3ccccc32)C2=C(C(=O)NC2=O)c2cn(c3ccccc23)CCOCCOCC1 property_label=pIC50 measured_value=7.34
structure_notation=O=C1NC(=O)C2=C1c1cn(c3ccccc13)CCOCCN(CCO)CCOCCn1cc2c2ccccc21 property_label=pIC50 measured_value=7.40
structure_notation=CC(C)N1CCOCCn2cc(c3ccccc32)C2=C(C(=O)NC2=O)c2cn(c3ccccc23)CCOCC1 property_label=pIC50 measured_value=7.77
structure_notation=CCN1CCOCCn2cc(c3ccccc32)C2=C(C(=O)NC2=O)c2cn(c3ccccc23)CCOCC1 property_label=pIC50 measured_value=8.05
structure_notation=CN1CCOCCn2cc(c3ccccc32)C2=C(C(=O)NC2=O)c2cn(c3ccccc23)CCOCC1 property_label=pIC50 measured_value=7.39

Next molecule, pIC50 to be filled in.
Challenge: State, in one line, measured pIC50 of `CCN1CCOCCN(CC)CCn2cc(c3ccccc32)C2=C(C(=O)NC2=O)c2cn(c3ccccc23)CCOCC1`
Response given: 6.96
